Hello, the source for this data is the supplement of paper PMC4466140, in case you need it.

# tgt: ScLsb1
# assayOverview: SPOT peptide array binding signal intensity (averaged, normalized) (arbitrary units (background-subtracted, floor 0; scale differs between SH3 domains)); higher = stronger binding of the SH3 domain to the peptide
Category key, based on recorded SPOT peptide array binding signal intensity: bottom bin (below 4), middle bin (4 to below 200), top bin (200 or more)

> print(dat)
             binder  assignedclass
 1  SSAAPPPPPRRATPE        top bin
 2  MPAPPPPPPPPPGAF     bottom bin
 3  SLSRRRFSLPSMPNV        top bin
 4  PSRRDSLSIPRAVDA     bottom bin
 5  TKHKAPPPPPPTAET     bottom bin
 6  DGNEEKPLLPTRPNK        top bin
 7  RRASLFPRDPKRLRP     middle bin
 8  PVLPPPRSPNRPTLS        top bin
 9  GERSRPLVISILSSA     bottom bin
10  VPPPMQPPPIESSNL     bottom bin
11  NAGIRPKFILALNDE     bottom bin
12  GATNNAPTLPKRKNP        top bin
13  QQNRPLPQLPNRNNR     middle bin
14  VQKRKLPLPGSIASA     bottom bin
15  VRTRRRPPPPPIPST     middle bin
